Item-by-item account of IC50
target: Protein farnesyltransferase (Homo sapiens, UniProt P49354+P49356); test: Inhibitory activity against farnesyltransferase (FT) using SPA assay
readout name: IC50

>>> result("CSCC[C@H](NC(=O)c1ccc(/C=C/c2ccc(Oc3ccccc3)nc2)cc1-c1ccccc1C)C(=O)O")
"26 nM"
>>> result("CSCC[C@H](NC(=O)c1ccc(CCc2cccnc2)cc1-c1ccccc1C)C(=O)O")
"2.1 nM"
>>> result("CSCC[C@H](NC(=O)c1ccc(/C(C#N)=C/c2cccnc2)cc1-c1ccccc1C)C(=O)O")
"0.59 nM"
>>> result("CSCC[C@H](NC(=O)c1ccc(COc2cccnc2)cc1-c1ccccc1C)C(=O)O")
"0.4 nM"
>>> result("CSCC[C@H](NC(=O)c1ccc(/C=C/c2cnccc2Cl)cc1-c1ccccc1C)C(=O)O")
"0.29 nM"
>>> result("CSCC[C@H](NC(=O)c1ccc(/C=C/c2cnccc2C(O)C2CCCCC2)cc1-c1ccccc1C)C(=O)O (stereo partly drawn)")
"0.54 nM"
>>> result("CSCC[C@H](NC(=O)c1ccc(/C=C/c2cnccc2OCc2cc(F)cc(F)c2)cc1-c1ccccc1C)C(=O)O")
"0.3 nM"
>>> result("CSCC[C@H](NC(=O)c1ccc(CCc2c[nH]cn2)cc1-c1ccccc1C)C(=O)O")
"0.15 nM"

====

experiment: AUC value in rat after oral administration at a dose of 10 mg/kg; format: ADME, organism-based; design: dose 10 mg/kg, route oral; conditions: plasma
readout name: AUC (ng·h/mL)

>>> numeric_result("CSCC[C@H](NC(=O)c1ccc(/C=C/c2cccnc2)cc1-c1ccccc1C)C(=O)O")
870

====

Listing: IC50 of selected molecules
molecular target: Protein farnesyltransferase (Homo sapiens, UniProt P49354+P49356); assay: Inhibitory activity against farnesyltransferase (FT) using SPA assay
readout name: IC50 (nM)

>>> numeric_result("CSCC[C@H](NC(=O)c1ccc(/C=C/c2c[nH]cn2)cc1-c1ccccc1C)C(=O)O")
0.63
>>> numeric_result("CSCC[C@H](NC(=O)c1ccc(C#Cc2cncnc2)cc1-c1ccccc1C)C(=O)O")
140
>>> numeric_result("CSCC[C@H](NC(=O)c1ccc(/C=C/c2cncc(Cc3ccccc3)c2)cc1-c1ccccc1C)C(=O)O")
4.7
>>> numeric_result("CSCC[C@H](NC(=O)c1ccc(/C=C/c2cnc3ccccc3c2)cc1-c1ccccc1C)C(=O)O")
16
>>> numeric_result("CSCC[C@H](NC(=O)c1ccc(/C=C/c2cncs2)cc1-c1ccccc1C)C(=O)O")
2.4

====

test: AUC value in rat after IV administration at a dose of 10 mg/kg; assay type: ADME, organism-based; parameters: dose 10 mg/kg, route intravenous; details: plasma
readout name: AUC (ng·h/mL)

>>> numeric_result("CSCC[C@H](NC(=O)c1ccc(/C=C/c2cccnc2)cc1-c1ccccc1C)C(=O)O")
6660

====

assay: Tmax value in rat after oral administration at a dose of 10 mg/kg; format: ADME, organism-based; parameters: dose 10 mg/kg, route oral; details: in vivo
readout name: Tmax (min)

>>> numeric_result("CSCC[C@H](NC(=O)c1ccc(/C=C/c2cccnc2)cc1-c1ccccc1C)C(=O)O")
19.8

====

system: NIH3T3; assay: Inhibition of H-ras processing in subconfluent H-Ras-transformed NIH3T3 cells; format: functional, cell-based; settings: Mus musculus
pEC50: −log10 of the molar value.
The reader will find reported pEC50 values listed item by item below.
readout name: pEC50

>>> result("CSCC[C@H](NC(=O)c1ccc(/C=C/c2cncs2)cc1-c1ccccc1C)C(=O)O")
"< 6.00"
>>> result("CSCC[C@H](NC(=O)c1ccc(C#Cc2cccnc2)cc1-c1ccccc1C)C(=O)O")
6.00
>>> result("CSCC[C@H](NC(=O)c1ccc(CCc2c[nH]cn2)cc1-c1ccccc1C)C(=O)O")
"< 6.00"
>>> result("CSCC[C@H](NC(=O)c1ccc(/C=C/c2cnccc2C(=O)c2ccccc2)cc1-c1ccccc1C)C(=O)O")
6.00
>>> result("CSCC[C@H](NC(=O)c1ccc(/C=C/c2c[nH]cn2)cc1-c1ccccc1C)C(=O)O")
"< 6.00"
>>> result("CSCC[C@H](NC(=O)c1ccc(CCn2ccnc2)cc1-c1ccccc1C)C(=O)O")
"< 6.00"
>>> result("CSCC[C@H](NC(=O)c1ccc(/C=C/c2cnc3ccccc3c2)cc1-c1ccccc1C)C(=O)O")
"< 6.00"
>>> result("CSCC[C@H](NC(=O)c1ccc(NC[C@@H](N)CS)cc1-c1ccccc1)C(=O)O")
6.00
>>> result("CSCC[C@H](NC(=O)c1ccc(/C=C/c2cncc(Cc3ccccc3)c2)cc1-c1ccccc1C)C(=O)O")
"< 6.00"
>>> result("CSCC[C@H](NC(=O)c1ccc(/C=C/n2ccnc2)cc1-c1ccccc1C)C(=O)O")
"< 6.00"
